# TARGET OF ASSAY: MCR-1 (Homo sapiens)
# Construct: expressed in transfected cells; host or cells: HEK 293
# Sequence (Q01726 whole entry): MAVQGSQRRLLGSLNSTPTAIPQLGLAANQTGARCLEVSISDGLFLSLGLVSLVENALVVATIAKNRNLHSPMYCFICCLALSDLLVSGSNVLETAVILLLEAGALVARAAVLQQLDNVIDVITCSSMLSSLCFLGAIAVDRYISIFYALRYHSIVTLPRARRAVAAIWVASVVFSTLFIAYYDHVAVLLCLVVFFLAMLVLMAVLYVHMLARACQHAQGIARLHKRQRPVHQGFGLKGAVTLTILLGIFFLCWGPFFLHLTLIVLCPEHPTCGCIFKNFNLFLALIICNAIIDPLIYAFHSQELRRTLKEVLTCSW
# PROTOCOL DETAILS: Melanocortin receptor binding assay, competition with 125I-HP 467, HEK 293 cells expressing hMCR-1
# TEST PARAMETERS: displacement of 125I-HP 467 at 10 μM isoquinoline compound; second of duplicate
OBSERVATION TYPE: % Disp. MC-1 10 μM (%)

INSERT INTO results (compound, observation_type, observed) VALUES
  ('CNC(CN)CN1Cc2ccccc2C(CNC2CCCCC2)C1c1ccc(C(C)C)cc1 (stereo not drawn)', '% Disp. MC-1 10 μM', 56.1),
  ('NCCN1Cc2ccccc2C(CNC2CCCCC2)C1c1c(F)cccc1F (stereo not drawn)', '% Disp. MC-1 10 μM', 27),
  ('CNC(CN)CN1Cc2ccccc2C(CNC2CCCCC2)C1c1ccc(C(F)(F)F)cc1 (stereo not drawn)', '% Disp. MC-1 10 μM', 57.4),
  ('NCCN1Cc2ccccc2C(CNC2CCCCC2)C1c1cc(O)cc(O)c1 (stereo not drawn)', '% Disp. MC-1 10 μM', 26.2),
  ('CNC(CN)CN1Cc2ccccc2C(CNC2CCCCC2)C1c1ccc(-c2ccccc2)cc1 (stereo not drawn)', '% Disp. MC-1 10 μM', 57.6);

[P] NCCN1Cc2ccccc2C(CNC2CCCCC2)C1c1cccc(Oc2ccc(Cl)c(Cl)c2)c1 (stereo not drawn)
[Q] Cc1ccc(C2C(CNC3CCCCC3)c3ccccc3CN2CCN)o1 (stereo not drawn)
Record comparison, field % Disp. MC-1 10 μM: mark the lower of P and Q . Bench note: the answer is the label of the chosen record.
Q
(Q: 26.3%, P: 48.7%)

[A] CNC(CN)CN1Cc2ccccc2C(CNC2CCCCC2)C1c1ccc(F)c(Br)c1 (stereo not drawn)
[B] NCCN1Cc2ccccc2C(CNC2CCCCC2)C1c1ccccc1F (stereo not drawn)
Record comparison, field % Disp. MC-1 10 μM: mark the lower of A and B . Bench note: the answer is the label of the chosen record.
B
(B: 40.3%, A: 58.4%)

Data provenance is patent US6608082B1.
